Where do these numbers come from? They come from patent US8334286B2.

value-type: melting point

O=C(c1cccc(F)c1)N1CCN2C(=O)CC[C@@H]2C1 [Example 21] = 161 to 162 °C

-- ask Suppose we examine the molecule O=C(c1ccccc1F)N1CCN2C(=O)CC[C@@H]2C1 [Example 20] ; what melting point value has been reported?
-- reply 123 to 124 °C

-- ask Suppose we examine the molecule O=C1CC[C@@H]2CN(S(=O)(=O)c3ccccc3C(F)(F)F)CCN12 [Example 8] ; what melting point value has been reported?
-- reply 157 to 158 °C

-- ask Suppose we examine the molecule Cc1cccc(S(=O)(=O)N2CCN3C(=O)CC[C@@H]3C2)c1 [Example 7] ; what melting point value has been reported?
-- reply 133 to 134 °C

-- ask Suppose we examine the molecule N#Cc1cccc(S(=O)(=O)N2CCN3C(=O)CC[C@@H]3C2)c1 [Example 12] ; what melting point value has been reported?
-- reply 180 to 181 °C

-- ask Suppose we examine the molecule Cc1ccccc1S(=O)(=O)N1CCN2C(=O)CC[C@@H]2C1 [Example 6] ; what melting point value has been reported?
-- reply 68 to 70 °C

-- ask Suppose we examine the molecule N#Cc1ccccc1S(=O)(=O)N1CCN2C(=O)CC[C@@H]2C1 [Example 11] ; what melting point value has been reported?
-- reply 198 to 199 °C

-- ask Suppose we examine the molecule O=C1CC[C@@H]2CN(S(=O)(=O)c3ccccc3F)CCN12 [Example 3] ; what melting point value has been reported?
-- reply 136 to 137 °C

-- ask Suppose we examine the molecule O=C1CC[C@@H]2CN(S(=O)(=O)c3ccc(C(F)(F)F)cc3)CCN12 [Example 10] ; what melting point value has been reported?
-- reply 226 to 227 °C

-- ask Suppose we examine the molecule O=C1CC[C@@H]2CN(S(=O)(=O)c3ccc(F)c(F)c3)CCN12 [Example 5] ; what melting point value has been reported?
-- reply 208 to 209 °C

====

Entries and their measured melting point follow.

O=C1CC[C@H]2CN(S(=O)(=O)c3ccccc3F)CCN12 = 142 to 144 °C
O=C(c1cccc(F)c1)N1CCN2C(=O)CC[C@H]2C1 = 161 to 162 °C
Cc1ccc(N2CCN3C(=O)CCC3C2=O)cc1 (stereo not shown) = 115 to 117 °C
O=C1CC[C@@H]2CN(S(=O)(=O)c3cccc(F)c3)CCN12 = 179 to 180 °C
COc1cccc(S(=O)(=O)N2CCN3C(=O)CC[C@@H]3C2)c1 = 144 to 145 °C

Now examine the next entry.
-- ask Suppose we examine the compound "O=C1CC[C@@H]2CN(S(=O)(=O)c3cccnc3)CCN12" ; what melting point value has been reported?
-- reply 165 to 166 °C

====

Entries and their measured melting point follow.

Completed entries (count: 2):
O=C1CC[C@@H]2CN(S(=O)(=O)c3cccc(C(F)(F)F)c3)CCN12 [Example 9] = 172 to 174 °C
O=C1CC[C@H]2CN(S(=O)(=O)c3cccc(F)c3)CCN12 [Example 2] = 177 to 179 °C

-- ask Suppose we examine the compound N#Cc1ccc(S(=O)(=O)N2CCN3C(=O)CC[C@@H]3C2)cc1 [Example 13] ; what melting point value has been reported?
-- reply 242 to 243 °C

-- ask Suppose we examine the compound O=C(c1ccccc1F)N1CCN2C(=O)CC[C@H]2C1 [Example 18] ; what melting point value has been reported?
-- reply 123 to 124 °C
